Target: T1, human LIGHT (TNFSF14), full length, membrane-bound (214E allele) (human, UniProt O43557 1-240)
T1 construct: also called membrane LIGHT; human membrane LIGHT
T1 sequence (O43557 whole entry K214E): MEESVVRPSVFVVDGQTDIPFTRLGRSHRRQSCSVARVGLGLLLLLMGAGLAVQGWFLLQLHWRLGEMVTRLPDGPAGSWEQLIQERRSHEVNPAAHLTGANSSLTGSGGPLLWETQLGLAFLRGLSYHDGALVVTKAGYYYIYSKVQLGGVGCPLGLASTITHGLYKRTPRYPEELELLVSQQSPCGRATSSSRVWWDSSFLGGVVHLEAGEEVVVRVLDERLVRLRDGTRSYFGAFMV
Assay: competition with biotin-HVEM-Fc, EL4-LIGHT cells, flow cytometry
Would you mind telling me the reported log10 of IC50 of each entry?
Units before log transform: nM; reported quantity: IC50; transform: log10.

// query Find the recorded log10 of IC50 belonging to 3E09 (antibody, V domains shown, chimeric human IgG4 (S-to-P, L-to-E at 248), human CL; also called Parental 3E09) VH: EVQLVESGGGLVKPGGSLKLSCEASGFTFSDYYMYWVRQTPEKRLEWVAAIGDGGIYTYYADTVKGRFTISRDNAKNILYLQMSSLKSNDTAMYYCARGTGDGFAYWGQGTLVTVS VL: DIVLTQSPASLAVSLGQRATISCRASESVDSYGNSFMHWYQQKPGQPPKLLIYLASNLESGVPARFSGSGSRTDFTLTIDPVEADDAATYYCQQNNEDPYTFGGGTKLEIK and report it.
// result 1.38

// query Find the recorded log10 of IC50 belonging to 2B11 (antibody, human IgG4, V domains shown, chimeric human IgG4 (S-to-P, L-to-E at 248), human CL; also called Parental 2B11) VH: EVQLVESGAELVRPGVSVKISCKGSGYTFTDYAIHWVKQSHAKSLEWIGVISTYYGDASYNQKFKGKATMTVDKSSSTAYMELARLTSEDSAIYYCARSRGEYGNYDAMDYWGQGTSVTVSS VL: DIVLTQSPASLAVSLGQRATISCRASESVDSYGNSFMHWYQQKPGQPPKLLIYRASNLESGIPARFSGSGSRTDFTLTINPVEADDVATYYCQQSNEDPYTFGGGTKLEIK and report it.
// result -0.47

// query Find the recorded log10 of IC50 belonging to 3C10 (antibody, human IgG4, V domains shown, chimeric human IgG4 (S-to-P, L-to-E at 248), human CL; also called Parental 3C10) VH: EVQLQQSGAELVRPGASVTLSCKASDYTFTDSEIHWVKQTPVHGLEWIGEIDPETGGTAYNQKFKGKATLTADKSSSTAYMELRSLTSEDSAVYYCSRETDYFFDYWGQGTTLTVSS VL: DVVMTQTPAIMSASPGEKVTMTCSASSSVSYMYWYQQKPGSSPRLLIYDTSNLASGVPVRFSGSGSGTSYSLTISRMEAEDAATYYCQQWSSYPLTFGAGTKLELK and report it.
// result -0.10

// query Find the recorded log10 of IC50 belonging to 2E08 (antibody, human IgG4, V domains shown, chimeric human IgG4 (S-to-P, L-to-E at 248), human CL; also called Parental 2E08) VH: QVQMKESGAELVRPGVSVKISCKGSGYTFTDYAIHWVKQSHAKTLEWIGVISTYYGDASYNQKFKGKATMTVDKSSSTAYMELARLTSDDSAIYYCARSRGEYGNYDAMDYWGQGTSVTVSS VL: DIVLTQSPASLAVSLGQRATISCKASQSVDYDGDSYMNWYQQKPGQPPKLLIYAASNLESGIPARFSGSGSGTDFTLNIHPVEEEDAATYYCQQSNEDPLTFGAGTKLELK and report it.
// result 0.63

// query Find the recorded log10 of IC50 belonging to 3B04 (antibody, human IgG4, V domains shown, chimeric: mouse variable domains on human IgG4 HC (S-to-P and L-to-E at 248) and human CL; also called Parental 3B04; 3B04 chimeric) VH: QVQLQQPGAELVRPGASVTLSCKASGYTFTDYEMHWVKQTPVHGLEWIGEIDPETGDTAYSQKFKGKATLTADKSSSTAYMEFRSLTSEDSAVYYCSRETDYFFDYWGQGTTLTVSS VL: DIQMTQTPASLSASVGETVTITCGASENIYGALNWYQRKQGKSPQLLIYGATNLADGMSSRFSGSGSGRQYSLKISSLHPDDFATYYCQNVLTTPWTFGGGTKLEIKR and report it.
// result -0.89

// query Find the recorded log10 of IC50 belonging to 3A07 (antibody, human IgG4, V domains shown, chimeric human IgG4 (S-to-P, L-to-E at 248), human CL; also called Parental 3A07) VH: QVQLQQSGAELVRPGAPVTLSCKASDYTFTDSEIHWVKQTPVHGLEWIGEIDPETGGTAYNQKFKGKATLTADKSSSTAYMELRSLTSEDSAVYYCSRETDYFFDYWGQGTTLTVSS VL: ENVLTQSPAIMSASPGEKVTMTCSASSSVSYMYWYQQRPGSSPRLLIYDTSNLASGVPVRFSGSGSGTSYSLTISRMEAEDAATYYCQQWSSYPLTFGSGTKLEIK and report it.
// result -0.49

// query Find the recorded log10 of IC50 belonging to 3D12 (antibody, human IgG4, V domains shown, chimeric: mouse variable domains on human IgG4 HC (S-to-P and L-to-E at 248) and human CL; also called Parental 3D12; 3D12 chimeric) VH: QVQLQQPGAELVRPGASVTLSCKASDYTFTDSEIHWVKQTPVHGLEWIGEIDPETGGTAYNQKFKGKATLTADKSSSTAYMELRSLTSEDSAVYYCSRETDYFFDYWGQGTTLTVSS VL: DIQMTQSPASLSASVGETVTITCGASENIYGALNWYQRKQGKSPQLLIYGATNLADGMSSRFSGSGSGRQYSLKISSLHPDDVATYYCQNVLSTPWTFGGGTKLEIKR and report it.
// result -0.80
